TARGET_SYSTEM: Inosine-5'-monophosphate dehydrogenase 2 (Homo sapiens)
ASSAY_PROTOCOL: Inhibitory binding constant was determined against human Inosine-5'-monophosphate dehydrogenase 2 (IMPDH type II) from intercept of Michaelis-Menten plot
# Kii per record follows
ASSAY_METRIC: Kii (µM)

>>> df
                                  structure  experimental_value
0  NC(=O)c1csc([C@@H]2O[C@H](COP(=O)(O)CP(=O)(O)OC[C@@H]3O[C@H](n4cnc5c(N)ncnc54)[C@@H](O)[C@H]3O)[C@@H](O)[C@H]2O)n1                0.11
1  NC(=O)c1csc([C@@H]2O[C@H](COP(=O)(O)OP(=O)(O)OC[C@@H]3O[C@H](n4cnc5c(N)ncnc54)[C@H](F)[C@H]3O)[C@@H](O)[C@H]2O)n1                 2.9
2  NC(=O)c1csc([C@@H]2O[C@H](COP(=O)(O)C(F)(F)P(=O)(O)OC[C@@H]3O[C@H](n4cnc5c(N)ncnc54)[C@@H](O)[C@H]3O)[C@@H](O)[C@H]2O)n1                0.17
3  NC(=O)c1csc([C@H]2O[C@@H](COP(=O)(O)OP(=O)(O)OC[C@H]3O[C@@H](n4cnc5c(N)ncnc54)[C@H](O)[C@@H]3O)[C@H](O)[C@@H]2O)n1                0.19
4  NC(=O)c1csc([C@@H]2O[C@H](COP(=O)(O)OP(=O)(O)OC[C@@H]3O[C@H](n4cnc5c(N)ncnc54)[C@@H](F)[C@H]3O)[C@@H](O)[C@H]2O)n1                 0.5
5  NC(=O)c1csc([C@@H]2O[C@H](COP(=O)(O)OP(=O)(O)OC[C@@H]3O[C@H](n4cnc5c(N)ncnc54)[C@@H](O)[C@H]3F)[C@@H](O)[C@H]2O)n1                 0.7
